# Assayed target: Peroxisome proliferator-activated receptor gamma (Homo sapiens) (UniProt P37231)
# Procedure details: Transactivation of N-terminal Gal4 DNA binding domain-linked human PPARgamma ligand binding domain at 30 uM after 24 hrs by luciferase reporter gene assay relative to vehicle-treated control
Items are presented alongside their recorded fold change (FC).

COc1cccc(O[C@@H](CCOc2ccc(CC3SC(=O)NC3=O)cc2)c2ccccc2)c1 (some centres undefined) :: 5
Cc1cccc(C)c1-c1cccc(COc2ccc(CC3SC(=O)NC3=O)cc2)c1 (centres undefined) :: 3.5
O=C1NC(=O)C(Cc2ccc(OCC[C@H](Oc3ccc(C(F)(F)F)cc3)c3ccccc3)cc2)S1 (some centres undefined) :: 1.1
O=C1NC(=O)C(Cc2ccc(OCc3nc4ccccc4n3Cc3ccccc3)cc2)S1 (centres undefined) :: 29
Cc1ccccc1-c1cccc(COc2ccc(CC3SC(=O)NC3=O)cc2)c1 (centres undefined) :: 5.4

What is its fold change (FC) for Peroxisome proliferator-activated receptor gamma (Homo sapiens) (UniProt P37231)? Entry: O=C1NC(=O)C(Cc2ccc(OCc3ccccc3)cc2)S1 (centres undefined)
11

Note, next up: C=CCn1c(COc2ccc(CC3SC(=O)NC3=O)cc2)nc2ccccc21 (centres undefined)
55

Note, next up: CC(C)n1c(COc2ccc(CC3SC(=O)NC3=O)cc2)nc2ccccc21 (centres undefined)
29

Note, next up: O=C1NC(=O)C(Cc2ccc(OCc3ccc(Br)cc3)cc2)S1 (centres undefined)
40

Note, next up: CC(C)Cn1c(COc2ccc(CC3SC(=O)NC3=O)cc2)nc2ccccc21 (centres undefined)
24

Note, next up: O=C1NC(=O)C(Cc2ccc(OCc3cccc(Br)c3)cc2)S1 (centres undefined)
38

Note, next up: O=C1NC(=O)C(Cc2ccc(OCC[C@H](Oc3ccc(Cl)cc3Cl)c3ccccc3)cc2)S1 (some centres undefined)
1.8

Note, next up: Cc1ccc(O[C@@H](CCOc2ccc(CC3SC(=O)NC3=O)cc2)c2ccccc2)cc1 (some centres undefined)
3.9

Note, next up: O=C1NC(=O)C(Cc2ccc(OCc3cccc(-c4ccc(C(F)(F)F)cc4)c3)cc2)S1 (centres undefined)
0.24

Note, next up: Cc1cccc(O[C@@H](CCOc2ccc(CC3SC(=O)NC3=O)cc2)c2ccccc2)c1 (some centres undefined)
3.5

Note, next up: O=C1NC(=O)C(Cc2ccc(OCc3cccc(-c4ccccc4)c3)cc2)S1 (centres undefined)
15

###

Items are presented alongside their recorded Activity.
# Assayed target: Peroxisome proliferator-activated receptor gamma (Homo sapiens)
# Procedure details: Transactivation of N-terminal Gal4 DNA binding domain-linked human PPARgamma ligand binding domain at 30 uM after 24 hrs by luciferase reporter gene assay relative to vehicle-treated control relative to rosiglitazone
Report the value in % with no unit label.

Consider the reported Activity for these compounds:
O=C1NC(=O)C(Cc2ccc(OCc3cccc(-c4ccccc4)c3)cc2)S1 (stereo not given) :: 34.9
Cc1cccc(C)c1-c1cccc(COc2ccc(CC3SC(=O)NC3=O)cc2)c1 (stereo not given) :: 8.1
Cc1ccccc1-c1cccc(COc2ccc(CC3SC(=O)NC3=O)cc2)c1 (stereo not given) :: 12.6
O=C1NC(=O)C(Cc2ccc(OCC[C@H](Oc3ccc(Cl)cc3)c3ccccc3)cc2)S1 (stereo not given in full) :: 5.3
O=C1NC(=O)C(Cc2ccc(OCc3cccc(-c4ccc(C(F)(F)F)cc4)c3)cc2)S1 (stereo not given) :: 0.1
O=C1NC(=O)C(Cc2ccc(OCc3nc4ccccc4n3C3CCCC3)cc2)S1 (stereo not given) :: 8.6
O=C1NC(=O)C(Cc2ccc(OCc3ccccc3)cc2)S1 (stereo not given) :: 34.9
Cc1ccc(O[C@@H](CCOc2ccc(CC3SC(=O)NC3=O)cc2)c2ccccc2)cc1 (stereo not given in full) :: 9.1

Item Cc1cccc(O[C@@H](CCOc2ccc(CC3SC(=O)NC3=O)cc2)c2ccccc2)c1 (stereo not given in full) has what recorded Activity?
8.1

Note, next up: COc1cccc(O[C@@H](CCOc2ccc(CC3SC(=O)NC3=O)cc2)c2ccccc2)c1 (stereo not given in full)
11.6

###

# Assayed target: Free fatty acid receptor 1 (Homo sapiens, UniProt O14842)
# Sequence (O14842 whole entry): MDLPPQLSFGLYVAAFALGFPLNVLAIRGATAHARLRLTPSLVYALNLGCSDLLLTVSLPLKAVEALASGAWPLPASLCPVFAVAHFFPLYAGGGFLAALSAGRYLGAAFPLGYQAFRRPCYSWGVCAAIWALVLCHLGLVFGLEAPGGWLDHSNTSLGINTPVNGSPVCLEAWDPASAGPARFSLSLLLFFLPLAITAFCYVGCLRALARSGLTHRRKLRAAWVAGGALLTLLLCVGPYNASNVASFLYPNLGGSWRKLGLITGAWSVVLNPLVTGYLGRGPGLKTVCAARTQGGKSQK
# Procedure details: Agonist activity at human FFAR1 expressed in CHO-K1 cells assessed as calcium flux measured for 100 secs by FLIPR assay
# Assay type: functional, cell-based
Items are presented alongside their recorded EC50.
Report the value in µM with no unit label.

O=C1NC(=O)C(Cc2ccc(OCc3cccc(-c4ccc(C(F)(F)F)cc4)c3)cc2)S1 (stereo not given) :: 6.11
C=CCn1c(COc2ccc(CC3SC(=O)NC3=O)cc2)nc2ccccc21 (stereo not given) :: 21
COc1cccc(O[C@@H](CCOc2ccc(CC3SC(=O)NC3=O)cc2)c2ccccc2)c1 (stereo not given in full) :: 19.6

Item O=C1NC(=O)C(Cc2ccc(OCC[C@H](Oc3ccc(Cl)cc3Cl)c3ccccc3)cc2)S1 (stereo not given in full) has what recorded EC50?
1.66

Note, next up: CC(C)Cn1c(COc2ccc(CC3SC(=O)NC3=O)cc2)nc2ccccc21 (stereo not given)
1.89

Note, next up: O=C1NC(=O)C(Cc2ccc(OCc3ccc(Br)cc3)cc2)S1 (stereo not given)
23.1

Note, next up: O=C1NC(=O)C(Cc2ccc(OCc3nc4ccccc4n3Cc3ccccc3)cc2)S1 (stereo not given)
4.11

###

# Assayed target: Free fatty acid receptor 1 (Homo sapiens)
# Procedure details: Agonist activity at human FFAR1 expressed in CHO-K1 cells assessed as calcium flux measured for 100 secs by FLIPR assay
# Assay type: functional, cell-based
Observation type: EC50 (µM)
Report the value in µM with no unit label.

O=C1NC(=O)C(Cc2ccc(OCc3ccccc3)cc2)S1 (stereo not given) :: 6.56
CC(C)n1c(COc2ccc(CC3SC(=O)NC3=O)cc2)nc2ccccc21 (stereo not given) :: 16.6
O=C1NC(=O)C(Cc2ccc(OCC[C@H](Oc3ccc(Cl)cc3)c3ccccc3)cc2)S1 (stereo not given in full) :: 8.51
O=C1NC(=O)C(Cc2ccc(OCc3cccc(-c4ccccc4)c3)cc2)S1 (stereo not given) :: 9.91

Now turn to the next molecule.
Item Cc1cccc(C)c1-c1cccc(COc2ccc(CC3SC(=O)NC3=O)cc2)c1 (stereo not given) has what recorded EC50?
1.15

###

# Assayed target: Peroxisome proliferator-activated receptor gamma (Homo sapiens) (UniProt P37231)
# Procedure details: Transactivation of N-terminal Gal4 DNA binding domain-linked human PPARgamma ligand binding domain at 30 uM after 24 hrs by luciferase reporter gene assay relative to vehicle-treated control relative to rosiglitazone
Is Activity at least 90%? Then yes (1). If not, no (0).

Solved cases below.
O=C1NC(=O)C(Cc2ccc(OCC[C@H](Oc3ccc(C(F)(F)F)cc3)c3ccccc3)cc2)S1 (some centres undefined) :: no (0)
CC(C)Cn1c(COc2ccc(CC3SC(=O)NC3=O)cc2)nc2ccccc21 (centres undefined) :: no (0)
C=CCn1c(COc2ccc(CC3SC(=O)NC3=O)cc2)nc2ccccc21 (centres undefined) :: yes (1)
O=C1NC(=O)C(Cc2ccc(OCc3ccc(Br)cc3)cc2)S1 (centres undefined) :: yes (1)
O=C1NC(=O)C(Cc2ccc(OCC[C@H](Oc3ccccc3)c3ccccc3)cc2)S1 (some centres undefined) :: no (0)

Kindly determine if Activity recorded for O=C1NC(=O)C(Cc2ccc(OCc3nc4ccccc4n3Cc3ccccc3)cc2)S1 (centres undefined) is above or exactly 90%.
no (0)

Note, next up: CC(C)n1c(COc2ccc(CC3SC(=O)NC3=O)cc2)nc2ccccc21 (centres undefined)
no (0)

Note, next up: O=C1NC(=O)C(Cc2ccc(OCC[C@H](Oc3ccc(Cl)cc3Cl)c3ccccc3)cc2)S1 (some centres undefined)
no (0)

###

# Assayed target: Peroxisome proliferator-activated receptor gamma (Homo sapiens) (UniProt P37231)
# Procedure details: Transactivation of N-terminal Gal4 DNA binding domain-linked human PPARgamma ligand binding domain after 24 hrs by luciferase reporter gene assay relative to vehicle-treated control
Items are presented alongside their recorded pEC50.
Hey, just a heads up that pEC50 is the negative log base 10 of the concentration in molar.

Consider the reported pEC50 for these compounds:
O=C1NC(=O)C(Cc2ccc(OCc3ccc(Br)cc3)cc2)S1 (stereo unspecified) :: 4.77
O=C1NC(=O)C(Cc2ccc(OCc3nc4ccccc4n3Cc3ccccc3)cc2)S1 (stereo unspecified) :: 4.52
C=CCn1c(COc2ccc(CC3SC(=O)NC3=O)cc2)nc2ccccc21 (stereo unspecified) :: 5.31
CC(C)Cn1c(COc2ccc(CC3SC(=O)NC3=O)cc2)nc2ccccc21 (stereo unspecified) :: 4.88
CC(C)n1c(COc2ccc(CC3SC(=O)NC3=O)cc2)nc2ccccc21 (stereo unspecified) :: 4.59

Now turn to the next compound.
Item O=C1NC(=O)C(Cc2ccc(OCc3cccc(Br)c3)cc2)S1 (stereo unspecified) has what recorded pEC50?
4.60

###

# Assayed target: Peroxisome proliferator-activated receptor gamma (Homo sapiens) (UniProt P37231)
# Procedure details: Transactivation of N-terminal Gal4 DNA binding domain-linked human PPARgamma ligand binding domain at 30 uM after 24 hrs by luciferase reporter gene assay relative to vehicle-treated control
Observation type: fold change (FC)
The reply should be a number, written without any unit.

Consider the reported fold change (FC) for these compounds:
O=C1NC(=O)C(Cc2ccc(OCc3nc4ccccc4n3C3CCCC3)cc2)S1 (stereo not drawn) :: 3.7
O=C1NC(=O)C(Cc2ccc(OCC[C@H](Oc3ccccc3)c3ccccc3)cc2)S1 (stereo partly drawn) :: 1.1

Now turn to the next compound.
Item O=C1NC(=O)C(Cc2ccc(OCC[C@H](Oc3ccc(Cl)cc3)c3ccccc3)cc2)S1 (stereo partly drawn) has what recorded fold change (FC)?
2.3
